# MEASURED TARGET: Bombesin receptor subtype-3 (Rattus norvegicus, UniProt Q8K418)
# Sequence (Q8K418 whole entry): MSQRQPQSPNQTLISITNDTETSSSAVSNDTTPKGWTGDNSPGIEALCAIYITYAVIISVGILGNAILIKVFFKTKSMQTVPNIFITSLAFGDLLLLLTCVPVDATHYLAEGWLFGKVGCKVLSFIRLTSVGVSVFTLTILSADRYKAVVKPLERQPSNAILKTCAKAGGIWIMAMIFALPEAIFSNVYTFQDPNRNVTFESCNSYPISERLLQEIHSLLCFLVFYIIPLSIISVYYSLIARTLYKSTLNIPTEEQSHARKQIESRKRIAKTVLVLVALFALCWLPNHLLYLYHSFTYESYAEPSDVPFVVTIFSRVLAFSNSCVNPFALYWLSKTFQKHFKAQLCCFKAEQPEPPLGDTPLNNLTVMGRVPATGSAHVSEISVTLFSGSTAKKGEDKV
RESULT TYPE: Ki

Ask: Entry `Oc1cc2c(cc1O)[C@@H]1c3ccccc3CN[C@@H]1CC2` has what Ki?
Reply: > 10 µM
